The following molecules were reported with IC50 values on Stromelysin-1 (Homo sapiens) in different studies.

In: Give a short answer stating reported IC50 for `O=C(CCl)NC(=O)N1CCN(S(=O)(=O)c2cc(F)c(Oc3ccc(Cl)cc3)c(F)c2)[C@@H](C(=O)NO)C1` .
Out: 50 to 1000 nM

In: Give a short answer stating reported IC50 for `CN(C)c1ccc2ccc(S(=O)(=O)N3CCN(S(=O)(=O)c4cc(F)c(Oc5ccc(Cl)cc5)c(F)c4)[C@@H](C(=O)NO)C3)cc2c1` .
Out: 50 to 1000 nM

In: Give a short answer stating reported IC50 for `O=C(NO)[C@H]1CN(C(=O)N2CCOCC2)CCN1S(=O)(=O)c1ccc(Oc2ccc(F)cc2)c(F)c1` .
Out: < 50 nM

In: Give a short answer stating reported IC50 for O=C(CC(CCn1nnc2ccccc2c1=O)C(=O)O)c1cc2cc(OCCc3ccccc3Cl)ccc2o1 (racemic) .
Out: > 40000 nM

* * *

The following compounds were reported with IC50 values on Stromelysin-1 (Homo sapiens) in different studies.

In: Please indicate recorded IC50 of Cc1cc(COc2ccc(S(=O)(=O)CC(CCc3cccnc3)N(O)C=O)cc2)c2ccccc2n1 (centres unmarked) measured with Stromelysin-1 (Homo sapiens).
Out: 1000 nM

In: Please indicate recorded IC50 of `CN(C)c1ccc2c(S(=O)(=O)N3CCN(S(=O)(=O)c4cc(F)c(Oc5ccc(Cl)cc5)c(F)c4)[C@@H](C(=O)NO)C3)cccc2c1` measured with Stromelysin-1 (Homo sapiens).
Out: 50 to 1000 nM

In: Please indicate recorded IC50 of `COCCN1CCN(S(=O)(=O)c2cc(F)c(Oc3ccc(Cl)cc3)c(F)c2)[C@@H](C(=O)NO)C1` measured with Stromelysin-1 (Homo sapiens).
Out: 50 to 1000 nM

In: Please indicate recorded IC50 of `CCCC(CCC)C(=O)N1CCN(S(=O)(=O)c2cc(F)c(Oc3ccc(Cl)cc3)c(F)c2)[C@@H](C(=O)NO)C1` measured with Stromelysin-1 (Homo sapiens).
Out: 1000 to 20000 nM

In: Please indicate recorded IC50 of `O=C(NO)[C@H]1CN(C(=O)N2CCOCC2)CCN1S(=O)(=O)c1cc(F)c(Oc2ccc(Cl)cc2)c(F)c1` measured with Stromelysin-1 (Homo sapiens).
Out: 50 to 1000 nM

* * *

The following molecules were reported with IC50 values on Stromelysin-1 (Homo sapiens) in different studies.

In: Please indicate recorded IC50 of `O=C(NO)[C@H]1CN(CC(=O)N2CCCC2)CCN1S(=O)(=O)c1cc(F)c(Oc2ccc(Cl)cc2)c(F)c1` measured with Stromelysin-1 (Homo sapiens).
Out: 1 to 20 µM

In: Please indicate recorded IC50 of `CCOC(=O)N1CCN(CC(=O)N2CCN(S(=O)(=O)c3cc(F)c(Oc4ccc(Cl)cc4)c(F)c3)[C@@H](C(=O)NO)C2)CC1` measured with Stromelysin-1 (Homo sapiens).
Out: 1 to 20 µM

In: Please indicate recorded IC50 of COCc1cc(COc2ccc(S(=O)(=O)CC(C=C3CCC(=O)CC3)N(O)C=O)cc2)cc(C)n1 (stereo not shown) measured with Stromelysin-1 (Homo sapiens).
Out: > 100 µM

In: Please indicate recorded IC50 of `C=CCN1CCN(S(=O)(=O)c2cc(F)c(Oc3ccc(Cl)cc3)c(F)c2)[C@@H](C(=O)NO)C1` measured with Stromelysin-1 (Homo sapiens).
Out: 1 to 20 µM

In: Please indicate recorded IC50 of O=C(NO)C(CS(=O)(=O)Cc1cnc2ccccc2c1)c1ccccc1 (stereo not shown) measured with Stromelysin-1 (Homo sapiens).
Out: > 10 µM

In: Please indicate recorded IC50 of CCCOc1ccc2cc(C(=O)CC(CCn3nnc4ccccc4c3=O)C(=O)O)oc2c1 (racemic) measured with Stromelysin-1 (Homo sapiens).
Out: > 40 µM

In: Please indicate recorded IC50 of `O=C(CN1CCOCC1)NC(=O)N1CCN(S(=O)(=O)c2cc(F)c(Oc3ccc(Cl)cc3)c(F)c2)[C@@H](C(=O)NO)C1` measured with Stromelysin-1 (Homo sapiens).
Out: 0.05 to 1 µM
